# System Under Test: Gal(b1-4)GlcNAc(b1-2)Man(a1-3)[Gal(b1-4)GlcNAc(b1-2)Man(a1-6)]Man(b1-4)GlcNAc(b1-4)[Fuc(a1-6)]GlcNAc
# Run Description: glycan array binding signal (z-score within array); higher = stronger binding
# Experimental Conditions: glycan notation: IUPAC condensed, linker removed
About 410 targets per protein were measured; listed, in parts, are those with the strongest signals and a random draw of the rest.
Measured Attribute: glycan array binding signal (z-score)
Lab note: write the figure by itself, no unit.

Req: Requested field: glycan array binding signal (z-score). Item: Nictaba (Nicotiana tabacum), Q94EW1 (protein) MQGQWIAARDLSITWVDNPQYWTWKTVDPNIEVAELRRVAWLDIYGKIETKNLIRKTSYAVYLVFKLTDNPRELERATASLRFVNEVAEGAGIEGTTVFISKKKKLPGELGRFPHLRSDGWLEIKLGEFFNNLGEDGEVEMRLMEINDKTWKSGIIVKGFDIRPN
Resp: 1.64
